A collection of compounds and their measured pIC50
Tested on: pJNK in HCT-116 cells
Assay: Phospho-JNK (Thr183/Tyr185) Meso Scale ELISA assay, TNFα-stimulated HCT-116 cells
Assay type: cell-based
Conditions: Homo sapiens, read-out: mean HCT-116 pJNK ELISA IC50 (Col. B)
pIC50: −log10 of the molar value. Counter-ions that a name gives are not always drawn.

{"columns": ["Compound", "pIC50"],
 "data": [
  ["CC(=O)N1CCC(n2cc(-c3cnc(N)c4oc(-c5cc(C)c(O)c(C)c5)cc34)cn2)CC1 [Example 138]", "6.00 to 7.00"],
  ["CC(=O)N1CCC(n2cc(-c3cnc(N)c4oc(-c5c[nH]c6cc(F)ccc56)cc34)cn2)CC1 [Example 213]", "6.00 to 7.00"],
  ["[2H]C([2H])([2H])Nc1ncc(-c2cnn([C@H]3CC[C@H](O)CC3)c2)c2cc(-c3cccc4nnsc34)oc12 [Example 361]", "> 7.00"],
  ["Nc1ncc(-c2cnn([C@H]3CC[C@H](O)CC3)c2)c2cc(-c3ccc4[nH]ncc4c3)oc12 [Example 402]", "6.00 to 7.00"],
  ["CC(=O)N1CCC(n2cc(-c3cnc(N)c4oc(-c5c6ccncc6nn5C)cc34)cn2)CC1 [Example 364, trifluoroacetic Acid Salt]", "5.00 to 6.00"],
  ["CNc1ncc(-c2cnn([C@H]3CC[C@H](O)CC3)c2)c2cc(-c3cccc4nnsc34)oc12 [Example 284, formate salt]", "> 7.00"],
  ["COc1nn([C@H]2CC[C@H](O)CC2)cc1-c1cnc(N)c2oc(-c3cccc4nnsc34)cc12 [Example 347, diformate salt]", "> 7.00"]
]}

###

Target: TAK1-TAB1 fusion protein (Homo sapiens)
Construct: purchased Carna
Assay: TAK1 biochemical assay (AlphaScreen, GST-MAP2K7 substrate)
Conditions: TAK1-TAB1 fusion protein, GST-MAP2K7 substrate; read-out: mean TAK1 IC50 (Col. A)
Where a name gives a salt, the structure may show the parent alone.

{"columns": ["Molecule", "IC50"],
 "data": [
  ["CC(=O)N1CCC(n2cc(-c3cnc(N)c4oc(-c5nn(C)c6cnccc56)cc34)cn2)CC1 [Example 363, trifluoroacetic acid salt]", "< 100 nM"],
  ["Nc1ccc(-c2cc3c(-c4cnn(C5CCNCC5)c4)cnc(N)c3o2)cn1", "1000 to 10000 nM"],
  ["CC(=O)N1CCC(n2cc(-c3cnc(N)c4oc(-c5c[nH]c6ccccc56)cc34)cn2)CC1", "> 10000 nM"],
  ["CC(=O)N1CCC(n2cc(-c3cnc(N)c4oc(-c5csc6cnc(F)cc56)cc34)cn2)CC1 [Example 248, bis(trifluoroacetate)]", "< 100 nM"],
  ["CC(=O)N1CCC(n2cc(-c3cnc(N)c4oc(-c5ccccc5C#N)cc34)cn2)CC1", "100 to 1000 nM"],
  ["CC(=O)N1CCC(n2cc(-c3cnc(N)c4oc(-c5cnc6[nH]ccc6c5)cc34)cn2)CC1", "100 to 1000 nM"],
  ["Nc1ncc(-c2cnn([C@@H]3C[C@H]4CC[C@@H](C3)N4)c2)c2cc(-c3cccc4cnsc34)oc12", "< 100 nM"],
  ["CC(=O)N1CCC(n2cc(-c3cnc(N)c4oc(-c5ccc6cn[nH]c6c5)cc34)cn2)CC1", "100 to 1000 nM"],
  ["COc1nn([C@H]2CC[C@H](O)CC2)cc1-c1cnc(N)c2oc(-c3cccc4nnsc34)cc12 [Example 347, diformate salt]", "< 100 nM"],
  ["CC(=O)N1CCC(n2cc(-c3cnc(N)c4oc(-c5ccc6c(cnn6C)c5)cc34)cn2)CC1", "1000 to 10000 nM"],
  ["COCCOc1cccc(-c2cc3c(-c4cnn(C5CCN(C(C)=O)CC5)c4)cnc(N)c3o2)c1", "1000 to 10000 nM"],
  ["CC(C)N1[C@@H]2CC[C@H]1C[C@H](n1cc(-c3cnc(N)c4oc(-c5csc6cnccc56)cc34)cn1)C2", "< 100 nM"],
  ["Nc1ncc(-c2cnn([C@H]3CC[C@H](O)CC3)c2)c2cc(-c3ccc(F)c4cnsc34)oc12 [Example 230, diformate salt]", "100 to 1000 nM"],
  ["Nc1ncc(-c2cc(C(=O)O)cs2)c2cc(-c3csc4cnccc34)oc12", "1000 to 10000 nM"],
  ["Nc1ccc(-c2nc(-c3cc4c(-c5cnn(C6CCNCC6)c5)cnc(N)c4o3)ccc2N)nc1Cl", "100 to 1000 nM"]
]}

###

A collection of compounds and their measured pIC50
Target: TAK1-TAB1 fusion protein (Homo sapiens)
Construct: purchased Carna
Assay: TAK1 biochemical assay (AlphaScreen, GST-MAP2K7 substrate)
Settings: TAK1-TAB1 fusion protein, GST-MAP2K7 substrate; read-out: mean TAK1 IC50 (Col. A)
pIC50: −log10 of the molar value. Where a name gives a salt, the structure may show the parent alone.

{"columns": ["Compound", "Assayed system", "pIC50"],
 "data": [
  ["CC(=O)N1CCC(n2cc(-c3cnc(N)c4oc(-c5ccc(O)cc5C)cc34)cn2)CC1", "TAK1-TAB1 fusion protein (Homo sapiens)", "6.00 to 7.00"],
  ["Nc1ncc(-c2cnn(C3CNC3)c2)c2cc(-c3csc4cnccc34)oc12", "TAK1-TAB1 fusion protein (Homo sapiens)", "> 7.00"],
  ["COc1cc2c(-c3cc4c(-c5cnn(C6CCN(C(C)=O)CC6)c5)cnc(N)c4o3)csc2cn1", "TAK1-TAB1 fusion protein (Homo sapiens)", "5.00 to 6.00"],
  ["Nc1ncc(-c2cnn([C@H]3CC[C@H](O)CC3)c2)c2cc(-c3cccn4cncc34)oc12", "TAK1-TAB1 fusion protein (Homo sapiens)", "> 7.00"],
  ["CC(=O)N1CCC(n2cc(-c3cnc(N)c4oc(-c5cc(C(F)(F)F)cc(C(F)(F)F)c5)cc34)cn2)CC1", "TAK1-TAB1 fusion protein (Homo sapiens)", "< 5.00"],
  ["CC(=O)N1CCC(n2cc(-c3cnc(N)c4oc(-c5ccc([N+](=O)[O-])nc5)cc34)cn2)CC1", "TAK1-TAB1 fusion protein (Homo sapiens)", "5.00 to 6.00"],
  ["CC(=O)N1CCC(n2cc(-c3cnc(N)c4oc(-c5ccc(F)c6cnsc56)cc34)cn2)CC1 [Example 223, diformate salt]", "TAK1-TAB1 fusion protein (Homo sapiens)", "6.00 to 7.00"]
]}

###

Biological target: TAK1-TAB1 fusion protein (Homo sapiens, UniProt O43318)
Construct: purchased Carna
Sequence (O43318 with tags, fused parts or gaps limits assumed): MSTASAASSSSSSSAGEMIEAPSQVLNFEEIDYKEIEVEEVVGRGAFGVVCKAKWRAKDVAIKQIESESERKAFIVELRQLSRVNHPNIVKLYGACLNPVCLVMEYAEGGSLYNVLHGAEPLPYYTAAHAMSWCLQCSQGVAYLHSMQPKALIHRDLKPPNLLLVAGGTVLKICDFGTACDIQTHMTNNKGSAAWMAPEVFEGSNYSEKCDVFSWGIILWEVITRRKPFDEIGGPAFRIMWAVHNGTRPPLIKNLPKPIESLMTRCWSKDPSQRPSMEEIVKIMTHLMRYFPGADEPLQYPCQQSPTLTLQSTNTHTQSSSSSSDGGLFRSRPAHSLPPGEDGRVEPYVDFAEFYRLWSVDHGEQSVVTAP
Assay: TAK1 biochemical assay (AlphaScreen, GST-MAP2K7 substrate)
Details: TAK1-TAB1 fusion protein, GST-MAP2K7 substrate; read-out: mean TAK1 IC50 (Col. A)
Counter-ions that a name gives are not always drawn.

{"columns": ["Compound", "IC50"],
 "data": [
  ["Nc1ncc(-c2cnn(C3CCNCC3)c2)c2cc(-c3cc(C(F)(F)F)cc(C(F)(F)F)c3)oc12", "1000 to 10000 nM"],
  ["Nc1ncc(-c2cnn(C3CCNCC3)c2)c2cc(-c3cccc4c3Sc3ccccc3S4)oc12", "1000 to 10000 nM"],
  ["Nc1ncc(-c2ccsc2)c2cc(-c3csc4cnccc34)oc12 [Example 391, trifluoroacetate]", "1000 to 10000 nM"],
  ["Nc1ncc(-c2cnn(C3CCOCC3)c2)c2cc(-c3cccc4cnccc34)oc12", "100 to 1000 nM"],
  ["CN1CCC(n2cc(-c3cnc(N)c4oc(-c5cccc6cnccc56)cc34)cn2)CC1", "100 to 1000 nM"],
  ["CC(=O)N1CCC(n2cc(-c3cnc(N)c4oc(-c5cccc6ccoc56)cc34)cn2)CC1", "> 10000 nM"],
  ["Nc1ncc(-c2cnn(C3CCNCC3)c2)c2cc(-c3cncc4ccccc34)oc12", "1000 to 10000 nM"],
  ["CC(=O)N1CCC(n2cc(-c3cnc(N)c4oc(-c5ccccc5)cc34)cn2)CC1", "1000 to 10000 nM"]
]}

Entry source: patent US8378104B2
